- EXPERIMENT_DESCRIPTION: Apparent permeability from basolateral to apical side in MDR expressing MDCK cells by LC-MS-MS analysis
- Type: ADME, cell-based, Canis lupus familiaris
- ASSAY_SETUP: dog, MDCK-MDR1
MEASURED_QUANTITY: Papp B→A (×10⁻⁶ cm/s)
Form entry: value (×10⁻⁶ cm/s) — number only.

Asked: Report Papp B→A, nothing else, for this molecule: CC(C)[C@H](N/C(=N\S(=O)(=O)c1ccc(Cl)cc1)N1CC(c2ccccc2)C(c2ccc(Cl)cc2)=N1)C(N)=O (some centres not stated)
Given back: 16.6

Asked: Report Papp B→A, nothing else, for this molecule: C[C@H](N/C(=N\S(=O)(=O)c1ccc(Cl)cc1)N1CC(c2ccccc2)C(c2ccc(Cl)cc2)=N1)C(N)=O (some centres not stated)
Given back: 9.25

Asked: Report Papp B→A, nothing else, for this molecule: C[C@@H](O)[C@H](N/C(=N/S(=O)(=O)c1ccc(Cl)cc1)N1CC(c2ccccc2)C(c2ccc(Cl)cc2)=N1)C(N)=O (some centres not stated)
Given back: 18.6

Asked: Report Papp B→A, nothing else, for this molecule: NC(=O)CCN=C(NS(=O)(=O)c1ccc(Cl)cc1)N1CC(c2ccccc2)C(c2ccc(Cl)cc2)=N1 (racemic)
Given back: 58

Asked: Report Papp B→A, nothing else, for this molecule: NC(=O)CN/C(=N\S(=O)(=O)c1ccc(Cl)cc1)N1CC(c2ccccc2)C(c2ccc(Cl)cc2)=N1 (racemic)
Given back: 60.5

Asked: Report Papp B→A, nothing else, for this molecule: CNC(=NS(=O)(=O)c1ccc(Cl)cc1)N1CC(c2ccccc2)C(c2ccc(Cl)cc2)=N1 (racemic) [RAC-IBIPINABANT]
Given back: 10

====

- TARGET_SYSTEM: Cannabinoid receptor 1 (Mus musculus) (UniProt P47746)
- Sequence (P47746 whole entry): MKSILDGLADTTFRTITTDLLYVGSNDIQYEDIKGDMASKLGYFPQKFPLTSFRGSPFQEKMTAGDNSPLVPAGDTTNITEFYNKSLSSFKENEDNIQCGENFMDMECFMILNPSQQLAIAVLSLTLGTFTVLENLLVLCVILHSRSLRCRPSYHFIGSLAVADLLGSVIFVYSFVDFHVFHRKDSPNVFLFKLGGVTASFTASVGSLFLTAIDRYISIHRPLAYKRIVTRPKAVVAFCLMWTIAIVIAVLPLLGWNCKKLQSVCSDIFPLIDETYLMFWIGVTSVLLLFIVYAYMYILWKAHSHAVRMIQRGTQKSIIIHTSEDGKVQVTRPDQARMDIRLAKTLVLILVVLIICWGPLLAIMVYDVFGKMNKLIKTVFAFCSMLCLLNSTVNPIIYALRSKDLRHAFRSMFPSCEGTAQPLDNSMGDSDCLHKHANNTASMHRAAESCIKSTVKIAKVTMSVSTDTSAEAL
- ASSAY_SETUP: Cerebellum, 30 mg/kg
MEASURED_QUANTITY: Occ (%)
Form entry: value (%) — number only.

Asked: Report Occ, nothing else, for this molecule: NC(=O)CN/C(=N\S(=O)(=O)c1ccc(Cl)cc1)N1CC(c2ccccc2)C(c2ccc(Cl)cc2)=N1 (single isomer, unassigned; enantiomer 1)
Given back: 0

Asked: Report Occ, nothing else, for this molecule: CN/C(=N\S(=O)(=O)c1ccc(Cl)cc1)N1CC(c2ccccc2)C(c2ccc(Cl)cc2)=N1 (racemic) [RAC-IBIPINABANT]
Given back: 102

Asked: Report Occ, nothing else, for this molecule: Cc1c(C(=O)NN2CCCCC2)nn(-c2ccc(Cl)cc2Cl)c1-c1ccc(Cl)cc1 [RIMONABANT]
Given back: 87

Asked: Report Occ, nothing else, for this molecule: CC(C)[C@H](N/C(=N\S(=O)(=O)c1ccc(Cl)cc1)N1C[C@H](c2ccccc2)C(c2ccc(Cl)cc2)=N1)C(N)=O
Given back: 0

====

- EXPERIMENT_DESCRIPTION: Drug uptake in chow fed mouse brain at 20 mg/kg, po for 3 days measured after 1 hr post last dose
- Format: ADME, organism-based
- Set-up: dose 20 mg/kg, route oral
- ASSAY_SETUP: read-out: Drug uptake
MEASURED_QUANTITY: concentration at 1 h (ng/g)
Form entry: value (ng/g) — number only.

Asked: Report concentration at 1 h, nothing else, for this compound: Cc1c(C(=O)NN2CCCCC2)nn(-c2ccc(Cl)cc2Cl)c1-c1ccc(Cl)cc1
Given back: 1080

====

- System: Mus musculus
- EXPERIMENT_DESCRIPTION: In vivo receptor occupancy at CB1 receptor in mouse hippocampus assessed as inhibition of [3H]SR141716A binding at 30 mg/kg, po for 3 days measured after 1 hr post last dose
- Type: functional
Would you kindly list Occ for each of these compounds?
Form entry: value (%) — number only.

Asked: Report Occ, nothing else, for this compound: Cc1c(C(=O)NN2CCCCC2)nn(-c2ccc(Cl)cc2Cl)c1-c1ccc(Cl)cc1
Given back: 100

Asked: Report Occ, nothing else, for this compound: NC(=O)CN=C(NS(=O)(=O)c1ccc(Cl)cc1)N1CC(c2ccccc2)C(c2ccc(Cl)cc2)=N1 (single isomer, unassigned; enantiomer 1)
Given back: 3

Asked: Report Occ, nothing else, for this compound: CN/C(=N\S(=O)(=O)c1ccc(Cl)cc1)N1CC(c2ccccc2)C(c2ccc(Cl)cc2)=N1 (racemic)
Given back: 100

Asked: Report Occ, nothing else, for this compound: CC(C)[C@H](N/C(=N\S(=O)(=O)c1ccc(Cl)cc1)N1C[C@H](c2ccccc2)C(c2ccc(Cl)cc2)=N1)C(N)=O
Given back: 0

====

- EXPERIMENT_DESCRIPTION: Efflux ratio of permeability from […] in MDR expressing MDCK cells
- Assay type: ADME, cell-based, Canis lupus familiaris
- ASSAY_SETUP: dog, MDCK-MDR1
Would you kindly list efflux ratio for each of these compounds?
Output: the number by itself.

Asked: Report efflux ratio, nothing else, for this compound: C[C@H](N/C(=N\S(=O)(=O)c1ccc(Cl)cc1)N1CC(c2ccccc2)C(c2ccc(Cl)cc2)=N1)C(N)=O (stereo partly drawn)
Given back: 3.8

Asked: Report efflux ratio, nothing else, for this compound: NC(=O)CCN=C(NS(=O)(=O)c1ccc(Cl)cc1)N1CC(c2ccccc2)C(c2ccc(Cl)cc2)=N1 (racemic)
Given back: 66

====

- Test system: MDCK
- EXPERIMENT_DESCRIPTION: Apparent permeability from basolateral to apical side in MDR expressing MDCK cells by LC-MS-MS analysis
- Format: ADME, cell-based, Canis lupus familiaris
- ASSAY_SETUP: dog, mdck
MEASURED_QUANTITY: Papp (×10⁻⁶ cm/s)
Form entry: value (×10⁻⁶ cm/s) — number only.

Asked: Report Papp, nothing else, for this compound: NC(=O)CNC(=O)CN/C(=N\S(=O)(=O)c1ccc(Cl)cc1)N1CC(c2ccccc2)C(c2ccc(Cl)cc2)=N1 (stereo unspecified)
Given back: 22.3

====

- EXPERIMENT_DESCRIPTION: Plasma concentration in chow fed mouse at 20 mg/kg, po for 3 days measured after 1 hr post last dose
- Assay type: ADME, organism-based
- Design: dose 20 mg/kg, route oral
MEASURED_QUANTITY: concentration at 1 h (ng/mL)
Form entry: value (ng/mL) — number only.

Asked: Report concentration at 1 h, nothing else, for this molecule: Cc1c(C(=O)NN2CCCCC2)nn(-c2ccc(Cl)cc2Cl)c1-c1ccc(Cl)cc1
Given back: 1200

====

Would you kindly list Drug uptake for each of these compounds?
- System: Brain
- EXPERIMENT_DESCRIPTION: Drug uptake in chow fed mouse brain assessed per gram of tissue at 100 mg/kg, po for 3 days measured 1 hr post last dose
- Format: ADME, organism-based
- Set-up: dose 100 mg/kg, route oral
- ASSAY_SETUP: in vivo
Form entry: value (ng/g) — number only.

Asked: Report Drug uptake, nothing else, for this compound: CNC(=NS(=O)(=O)c1ccc(Cl)cc1)N1CC(c2ccccc2)C(c2ccc(Cl)cc2)=N1 (racemic)
Given back: 2080

Asked: Report Drug uptake, nothing else, for this compound: NC(=O)CN=C(NS(=O)(=O)c1ccc(Cl)cc1)N1CC(c2ccccc2)C(c2ccc(Cl)cc2)=N1 (single isomer, unassigned; enantiomer 1)
Given back: 685

====

- TARGET_SYSTEM: Cannabinoid receptor 2 (Homo sapiens, UniProt P34972)
- Sequence (P34972 whole entry): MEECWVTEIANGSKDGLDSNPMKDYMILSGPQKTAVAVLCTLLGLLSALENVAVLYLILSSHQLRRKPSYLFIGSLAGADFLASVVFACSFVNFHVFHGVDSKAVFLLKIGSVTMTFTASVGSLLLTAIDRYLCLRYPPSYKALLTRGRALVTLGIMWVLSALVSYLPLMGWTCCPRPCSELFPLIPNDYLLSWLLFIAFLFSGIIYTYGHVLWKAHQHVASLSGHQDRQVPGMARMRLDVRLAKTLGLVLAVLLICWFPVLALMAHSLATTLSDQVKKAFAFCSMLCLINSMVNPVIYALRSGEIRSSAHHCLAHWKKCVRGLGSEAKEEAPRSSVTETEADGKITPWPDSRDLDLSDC
- EXPERIMENT_DESCRIPTION: Displacement of 3[H]ligand from recombinant human CB2 receptor
pIC50: −log10 of the molar value.
Would you kindly list pIC50 for each of these compounds?

Asked: Report pIC50, nothing else, for this compound: CC(C)(C)[C@H](N/C(=N\S(=O)(=O)c1ccc(Cl)cc1)N1CC(c2ccccc2)C(c2ccc(Cl)cc2)=N1)C(N)=O (some centres not stated)
Given back: < 5.30

Asked: Report pIC50, nothing else, for this compound: NC(=O)[C@@H](O)CCN/C(=N\S(=O)(=O)c1ccc(Cl)cc1)N1CC(c2ccccc2)C(c2ccc(Cl)cc2)=N1 (some centres not stated)
Given back: < 5.30

Asked: Report pIC50, nothing else, for this compound: C[C@@H](O)[C@H](N/C(=N\S(=O)(=O)c1ccc(Cl)cc1)N1CC(c2ccccc2)C(c2ccc(Cl)cc2)=N1)C(=O)N[C@@H](CO)C(N)=O (some centres not stated)
Given back: < 6.00

Asked: Report pIC50, nothing else, for this compound: CC(C)[C@H](N/C(=N\S(=O)(=O)c1ccc(Cl)cc1)N1CC(c2ccccc2)C(c2ccc(Cl)cc2)=N1)C(N)=O (some centres not stated)
Given back: < 6.00

Asked: Report pIC50, nothing else, for this compound: CC(CN/C(=N\S(=O)(=O)c1ccc(Cl)cc1)N1CC(c2ccccc2)C(c2ccc(Cl)cc2)=N1)C(N)=O (racemic)
Given back: < 6.00

Asked: Report pIC50, nothing else, for this compound: C[C@H](O)[C@@H](N=C(NS(=O)(=O)c1ccc(Cl)cc1)N1CC(c2ccccc2)C(c2ccc(Cl)cc2)=N1)C(N)=O (some centres not stated)
Given back: < 5.30

Asked: Report pIC50, nothing else, for this compound: COc1cccc(S(=O)(=O)/N=C(\N[C@H](C(N)=O)C(C)C)N2CC(c3ccccc3)C(c3ccc(Cl)cc3)=N2)c1 (some centres not stated)
Given back: < 6.00
